Overview of recorded PCC50 for various molecules
test system: mock-infected MT-4 cells; assay: Test B: cytotoxicity in mock-infected MT-4 cells engineered with GFP under a constitutional promoter; type: cell-based

molecule	result-operator	PCC50
COc1cc(C(C)=CC#N)cc(C)c1Nc1nc(Nc2ccc(C#N)cc2)nnc1C	=	5.7
N#CC=Cc1cc(Br)c(Nc2nnc(Cl)c(Nc3ccc(C#N)cc3)n2)c(Br)c1 (mixture of isomers)	=	5.1
N#C/C=C/c1cc(Cl)c(Nc2nnc(Cl)c(Nc3ccc(C#N)cc3)n2)c(Cl)c1	<	4.6
Cc1cc(/C=C/C#N)cc(Cl)c1Nc1nc(Nc2ccc(C#N)cc2)nnc1C	=	5.3
COc1cc(C)c(Nc2nnc(Cl)c(Nc3ccc(C#N)cc3)n2)c(C)c1	=	4.7
N#Cc1ccc(Nc2cnnc(Nc3c(F)cc(I)cc3F)n2)cc1	=	4.9
Cc1cc(/C=C/C(=O)N(C)C)cc(C)c1Oc1nc(Nc2ccc(C#N)cc2)nnc1C	=	4.7
N#C/C=C/c1cc(Cl)c(Nc2nnc(Cl)c(Nc3ccc(C#N)cc3)n2)c(Br)c1	=	5.0

----------
tested on: mock-infected MT-4 cells; test: Test B: cytotoxicity in mock-infected MT-4 cells engineered with GFP under a constitutional promoter; assay type: cell-based
Given measured PCC50, output T if it is greater than or equal to 5 and F if not.

smiles	assay-system	classification
CCN(C)C(=O)/C=C/c1cc(C)c(Oc2nc(Nc3ccc(C#N)cc3)nnc2C)c(C)c1	mock-infected MT-4 cells	F
C/C(=C\C#N)c1cc(Cl)c(Nc2nc(Nc3ccc(C#N)cc3)nnc2C)c(Cl)c1	mock-infected MT-4 cells	T
CNC(=O)/C=C/c1cc(C)c(Oc2nc(Nc3ccc(C#N)cc3)nnc2C)c(C)c1	mock-infected MT-4 cells	F
COc1cc(/C=C/C#N)cc(C)c1Nc1nc(Nc2ccc(C#N)cc2)nnc1C	mock-infected MT-4 cells	T
C/C(=C\C#N)c1cc(C)c(Nc2nc(Nc3ccc(C#N)cc3)nnc2C)c(Cl)c1	mock-infected MT-4 cells	T
Cc1cc(C(=O)N(C)C)cc(C)c1Nc1cnnc(Nc2ccc(C#N)cc2)n1	mock-infected MT-4 cells	F
COc1cc(/C=C/C#N)cc(Cl)c1Nc1nc(Nc2ccc(C#N)cc2)nnc1C	mock-infected MT-4 cells	T
N#CCCc1cc(Br)c(Nc2nnc(Cl)c(Nc3ccc(C#N)cc3)n2)c(Br)c1	mock-infected MT-4 cells	F
COc1cc(/C(C)=C/C#N)cc(Cl)c1Nc1nc(Nc2ccc(C#N)cc2)nnc1C	mock-infected MT-4 cells	T

----------
test system: mock-infected MT-4 cells; experiment: Test A: cytotoxicity in mock-infected MT-4 cells (MTT); assay type: cell-based
Overview of recorded PCC50 for various compounds

compound	PCC50
Cc1cc(/C=C/C#N)cc(C)c1Nc1nc(Nc2ccc(C#N)cc2)nnc1C [Compound 13]	<4.0
Cc1cc(C)c(Nc2nnc(Cl)c(Nc3ccc(C#N)cc3)n2)c(C)c1 [Compound 45]	<4.6
COc1cc(CCC#N)cc(OC)c1Nc1nc(Nc2ccc(C#N)cc2)nnc1C [Compound 40]	5.0
CCOc1cc(C)c(Nc2nc(Nc3ccc(C#N)cc3)nnc2C)c(C)c1 [Compound 35]	<4.6
Cc1cc(/C=C/C#N)cc(C)c1Nc1cnnc(Nc2ccc(C#N)cc2)n1 [Compound 8]	<4.0
Cc1nnc(Nc2ccc(C#N)cc2)nc1Nc1c(Cl)cc(/C=C/C#N)cc1Cl [Compound 34]	5.0
Cc1cc(CC#N)cc(C)c1Nc1nc(Nc2ccc(C#N)cc2)nnc1C [Compound 20]	<4.6
COc1cc(C)cc(C)c1Nc1nc(Nc2ccc(C#N)cc2)nnc1C [Compound 23]	6.4
Cc1cc(OCC#N)cc(C)c1Nc1nc(Nc2ccc(C#N)cc2)nnc1C [Compound 38]	4.7
Cc1cc(C)c(Nc2nc(Nc3ccc(C#N)cc3)nnc2C)c(CC#N)c1 [Compound 27]	<4.0
COc1cc(C)c(Nc2cnnc(Nc3ccc(C#N)cc3)n2)c(C)c1 [Compound 14]	<4.0
Cc1cc(/C=C/C(=O)N(C)C)cc(C)c1Nc1nc(Nc2ccc(C#N)cc2)nnc1C [Compound 22]	<4.6
Cc1cc(Br)cc(C)c1Nc1nc(Nc2ccc(C#N)cc2)nnc1C [Compound 16]	4.2
COc1cc(C)c(Nc2nc(Nc3ccc(C#N)cc3)nnc2C)c(C)c1 [Compound 11]	5.5
COc1cc(/C=C/C#N)cc(OC)c1Nc1nc(Nc2ccc(C#N)cc2)nnc1C [Compound 33]	5.4
Cc1cc(/C=C/C(=O)N2CCOCC2)cc(C)c1Oc1nc(Nc2ccc(C#N)cc2)nnc1C [Compound 47]	<4.6
COc1cc(OC)c(Nc2nc(Nc3ccc(C#N)cc3)nnc2C)c(OC)c1 [Compound 25]	4.4
Cc1cc(CC#N)cc(C)c1Nc1cnnc(Nc2ccc(C#N)cc2)n1 [Compound 24]	<4.6
Cc1cc(OCC#N)cc(C)c1Nc1cnnc(Nc2ccc(C#N)cc2)n1 [Compound 41]	<4.6
Cc1cc(Br)cc(C)c1Nc1cnnc(Nc2ccc(C#N)cc2)n1 [Compound 15]	<4.0
Cc1cc(/C=C/C(=O)N2CCCC2)cc(C)c1Nc1nc(Nc2ccc(C#N)cc2)nnc1C [Compound 39]	<4.0
CC(C#N)=Cc1cc(C)c(Nc2nc(Nc3ccc(C#N)cc3)nnc2C)c(C)c1 [Compound 42]	4.8
CNC(=O)c1cc(C)c(Nc2cnnc(Nc3ccc(C#N)cc3)n2)c(C)c1 [Compound 37]	4.3
Cc1cc(C(=O)N(C)C)cc(C)c1Nc1nc(Nc2ccc(C#N)cc2)nnc1C [Compound 31]	<4.0
Cc1cc(CCC#N)cc(C)c1Nc1nc(Nc2ccc(C#N)cc2)nnc1C [Compound 2]	<4.0
Cc1cc(CCC#N)cc(C)c1Nc1cnnc(Nc2ccc(C#N)cc2)n1 [Compound 9]	<4.0
CCOc1cc(C)c(Nc2cnnc(Nc3ccc(C#N)cc3)n2)c(C)c1 [Compound 43]	<4.6
Cc1cc(C#N)cc(C)c1Nc1nc(Nc2ccc(C#N)cc2)nnc1C [Compound 5]	<4.0
Cc1cc(C(C)(C)C)cc(C)c1Nc1nc(Nc2ccc(C#N)cc2)nnc1C [Compound 18]	<4.0
Cc1cc(C(C)(C)C)cc(C)c1Nc1cnnc(Nc2ccc(C#N)cc2)n1 [Compound 17]	<4.0
Cc1cc(/C=C\C#N)cc(C)c1Nc1nc(Nc2ccc(C#N)cc2)nnc1C [Compound 19]	4.6
